test system: Human oral epidermoid carcinoma cells (KB cell line); assay: Growth inhibition assay, KB cell line; assay type: cell-based; conditions: Homo sapiens, 48 hours, cell counting, read-out: IC50 KB (concentration required to inhibit cell growth by 50% relative to controls)
Reported values of IC50 for individual entries
Kindly provide the numeric value in µM only, without the unit symbol.

// worked examples, IC50 included
| molecule | IC50 (µM) |
| --- | --- |
| CC(=O)Oc1c2cccc(Cl)c2cc2cccc(Cl)c12 | 473 |
| COc1cccc2c1C(=O)c1c(O)c3c(c(O)c1C2=O)C[C@@](O)(C(=O)CO)C[C@@H]3O[C@H]1C[C@H](N)[C@H](O)[C@H](C)O1 [Doxorubicin, reference compound] | 420 |

Exercise: I'd like to know its IC50. The molecule in question is O=C(Oc1c2cccc(Cl)c2cc2cccc(Cl)c12)c1ccccc1
Solution: 813

Exercise: Now this one: CN(Cc1cnc2nc(N)nc(N)c2n1)c1ccc(C(=O)N[C@@H](CCC(=O)O)C(=O)O)cc1 [Methotrexate, reference compound]
Solution: 47200
